Measured fold change of affinity, listed per entry.
- system-tested: T1, Human CD3eg linker (human)
- T1 construct: Single-chain construct; also called recombinant human CD3
- T1 chain: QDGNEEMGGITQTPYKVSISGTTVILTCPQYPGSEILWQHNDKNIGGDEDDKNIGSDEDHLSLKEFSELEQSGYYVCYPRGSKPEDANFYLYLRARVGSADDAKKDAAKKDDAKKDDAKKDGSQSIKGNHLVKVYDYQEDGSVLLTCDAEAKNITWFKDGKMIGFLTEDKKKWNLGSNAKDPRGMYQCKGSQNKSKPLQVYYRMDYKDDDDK
- experiment-notes: SPR; fold vs parent H183/L072
# number only, unit fold dropped from output

1. H183/L072 VL S26L (antibody, name in Kabat numbering, V domains shown) VH: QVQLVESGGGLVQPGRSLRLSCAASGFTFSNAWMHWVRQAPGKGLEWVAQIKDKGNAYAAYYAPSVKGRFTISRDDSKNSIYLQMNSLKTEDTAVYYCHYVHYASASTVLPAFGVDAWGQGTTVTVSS VL: DIVMTQSPLSLPVTPGEPASISCQALQELVHMNRNTYLHWYQQKPGQAPRLLIYKVSNRFPGVPDRFSGSGSGTDFTLKISRVEAEDVGVYYCAQGTSVPFTFGQGTKLEIK ... 0.5
2. H183/L072 VL R54E (antibody, name in Kabat numbering, V domains shown) VH: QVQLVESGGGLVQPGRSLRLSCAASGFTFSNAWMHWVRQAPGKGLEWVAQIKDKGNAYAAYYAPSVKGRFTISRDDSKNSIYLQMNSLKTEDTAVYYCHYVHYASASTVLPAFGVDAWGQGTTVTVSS VL: DIVMTQSPLSLPVTPGEPASISCQASQELVHMNRNTYLHWYQQKPGQAPRLLIYKVSNEFPGVPDRFSGSGSGTDFTLKISRVEAEDVGVYYCAQGTSVPFTFGQGTKLEIK ... 0.8
3. H183/L072 VL A89H (antibody, name in Kabat numbering, V domains shown) VH: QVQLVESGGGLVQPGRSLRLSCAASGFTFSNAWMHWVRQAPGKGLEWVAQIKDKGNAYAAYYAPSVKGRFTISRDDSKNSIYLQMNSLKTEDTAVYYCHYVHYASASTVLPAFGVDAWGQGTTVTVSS VL: DIVMTQSPLSLPVTPGEPASISCQASQELVHMNRNTYLHWYQQKPGQAPRLLIYKVSNRFPGVPDRFSGSGSGTDFTLKISRVEAEDVGVYYCHQGTSVPFTFGQGTKLEIK ... 0
4. H183/L072 VL R29V (antibody, name in Kabat numbering, V domains shown) VH: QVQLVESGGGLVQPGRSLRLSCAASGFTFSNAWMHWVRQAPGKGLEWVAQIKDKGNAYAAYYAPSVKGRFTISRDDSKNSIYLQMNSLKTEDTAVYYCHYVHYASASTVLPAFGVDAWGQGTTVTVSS VL: DIVMTQSPLSLPVTPGEPASISCQASQELVHMNVNTYLHWYQQKPGQAPRLLIYKVSNRFPGVPDRFSGSGSGTDFTLKISRVEAEDVGVYYCAQGTSVPFTFGQGTKLEIK ... 0.3

The value of fold change of affinity measured for the binder H183/L072 VL V94R (antibody, name in Kabat numbering, V domains shown) VH: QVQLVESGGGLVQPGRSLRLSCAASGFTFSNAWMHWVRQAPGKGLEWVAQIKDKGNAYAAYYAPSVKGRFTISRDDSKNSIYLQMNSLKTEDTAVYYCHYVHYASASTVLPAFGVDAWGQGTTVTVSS VL: DIVMTQSPLSLPVTPGEPASISCQASQELVHMNRNTYLHWYQQKPGQAPRLLIYKVSNRFPGVPDRFSGSGSGTDFTLKISRVEAEDVGVYYCAQGTSRPFTFGQGTKLEIK turned out to be 0.5
